measured-on: BRD4(2) (Homo sapiens (Human), UniProt O60885)
test-protocol: BROMOscan KD determination
conditions-used: BROMOscan, Table 10
Parameter: Kd. Scope: all listed entries.
Return type: number; implicit unit nM.

{"compound": "CC(=O)N1c2ccc(-c3cccc(-n4cccn4)c3)cc2[C@H](Nc2ccc(Cl)cc2)C[C@@H]1C [compound 136]", "result-units": "nM", "Kd": 7.7}
{"compound": "COC(=O)c1ccc(N[C@@H]2C[C@H](C)N(C(C)=O)c3ccc(-c4cccc(NC(C)=O)c4)cc32)cc1 [compound 4]", "result-units": "nM", "Kd": 0.42}
{"compound": "COC(=O)c1ccc(N[C@@H]2C[C@H](C)N(C(C)=O)c3ccc(-c4ccnn4C)cc32)cc1 [compound 49]", "result-units": "nM", "Kd": 1.1}

Pending compound:
Data request, read-out Kd, for CC(=O)Nc1cccc(-c2ccc3c(c2)[C@H](Nc2ccccc2OC(F)(F)F)C[C@H](C)N3C(C)=O)c1 [compound 19]
1.7

====

measured-on: BRD4-BD1 (Homo sapiens (Human))
test-protocol: competitive TR-FRET assay, BET-BD with acetylated peptide ligand
conditions-used: Table 2, inhibitor potency by TR-FRET
The label is t for IC50 below 2 µM and f for IC50 equal to or exceeding 2 µM.

Confirm or reject: IC50 of CC(=O)N1c2ccc(-c3cccs3)cc2[C@H](NC(=O)OC(C)C)C[C@@H]1C [compound 52] lies strictly below 2 µM
f

Confirm or reject: IC50 of CC(=O)N1c2ccc(-c3ccco3)cc2[C@H](NC(=O)OC(C)C)C[C@@H]1C [compound 50] lies strictly below 2 µM
f

Confirm or reject: IC50 of CC(=O)N1c2ccc(-c3ccoc3)cc2[C@H](NC(=O)OC(C)C)C[C@@H]1C [compound 51] lies strictly below 2 µM
f

Confirm or reject: IC50 of CC(=O)N1c2ccc(-c3cc[nH]c3)cc2[C@H](NC(=O)OC(C)C)C[C@@H]1C [compound 55] lies strictly below 2 µM
t

Confirm or reject: IC50 of CC(=O)N1c2ccc(-c3ccsc3)cc2[C@H](NC(=O)OC(C)C)C[C@@H]1C [compound 53] lies strictly below 2 µM
f

Confirm or reject: IC50 of CC(=O)N1c2ccc(-c3ccc[nH]3)cc2[C@H](NC(=O)OC(C)C)C[C@@H]1C [compound 54] lies strictly below 2 µM
t

====

measured-on: BRD2-BD2 (Homo sapiens (Human))
Sequence (P25440 344-453): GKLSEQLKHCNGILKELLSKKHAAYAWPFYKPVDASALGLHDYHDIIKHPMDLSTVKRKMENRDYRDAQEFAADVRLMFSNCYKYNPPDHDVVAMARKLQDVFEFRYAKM
test-protocol: competitive TR-FRET assay, BET-BD with acetylated peptide ligand
Assay type: binding
conditions-used: ratio of BRD2-BD1 EC50 to BRD2-BD2 EC50 (selectivity)
measurement-kind: 2.1/2.2
Response field accepts a number only; no unit should be typed.

Recorded results for 4 molecules are shown here.
{"smiles-entry": "CC(=O)N1c2ccc(-c3cc4ccccc4o3)cc2[C@H](NC(=O)OC(C)C)C[C@@H]1C", "measured-on": "BRD2-BD2 (Homo sapiens (Human))", "measured-number": 4.7}
{"smiles-entry": "CC(=O)N1c2ccc(-c3cccc(NC(=O)C4CC4)c3)cc2[C@H](NC(=O)OC(C)C)C[C@@H]1C", "measured-on": "BRD2-BD2 (Homo sapiens (Human))", "measured-number": 1.2}
{"smiles-entry": "C#CCCNC(=O)c1ccc(N[C@@H]2C[C@H](C)N(C(C)=O)c3ccc(-c4cccc(NC(C)=O)c4)cc32)cc1", "measured-on": "BRD2-BD2 (Homo sapiens (Human))", "measured-number": 3.4}
{"smiles-entry": "CC(=O)N1c2ccc(-c3cccc(-n4cccn4)c3)cc2[C@H](NC(=O)OC(C)C)C[C@@H]1C", "measured-on": "BRD2-BD2 (Homo sapiens (Human))", "measured-number": 2.6}

Data request, read-out 2.1/2.2, for CC(=O)N1c2ccc(-c3cccc(NC4CCCC4)c3)cc2[C@H](Nc2ccccc2OC(F)(F)F)C[C@@H]1C
4.6

Data request, read-out 2.1/2.2, for COc1cccc(-c2ccc3c(c2)[C@H](NC(=O)OC(C)C)C[C@H](C)N3C(C)=O)c1
6.8

====

measured-on: BRD4-BD2 (Homo sapiens (Human), UniProt O60885)
test-protocol: competitive TR-FRET assay, BET-BD with acetylated peptide ligand
Format: binding
conditions-used: Table 4; read-out: EC50 (μM) BRD4(2)
The label is Met for EC50 below 0.1 µM and Not met for EC50 equal to or exceeding 0.1 µM.

Confirm or reject: EC50 of COC(=O)c1ccc(N[C@@H]2C[C@H](C)N(C(C)=O)c3ccc(-c4cccc(NC(C)=O)c4)cc32)cc1 [compound 4] lies strictly below 0.1 µM
Met

Confirm or reject: EC50 of CC(=O)Nc1cccc(-c2ccc3c(c2)[C@H](Nc2ccccc2OC(F)(F)F)C[C@H](C)N3C(C)=O)c1 [compound 19] lies strictly below 0.1 µM
Not met

Confirm or reject: EC50 of CC(=O)Nc1cccc(-c2ccc3c(c2)[C@H](Nc2ccc(F)cc2)C[C@H](C)N3C(C)=O)c1 [compound 39] lies strictly below 0.1 µM
Met

Confirm or reject: EC50 of CC(=O)Nc1cccc(-c2ccc3c(c2)[C@H](Nc2ccc(Cl)cc2)C[C@H](C)N3C(C)=O)c1 [compound 10] lies strictly below 0.1 µM
Not met

====

measured-on: BRD2-BD1 (Homo sapiens (Human))
test-protocol: competitive TR-FRET assay, BET-BD with acetylated peptide ligand
Format: binding
conditions-used: BRD2-BD1; Table 11 additional modifications; read-out: 2.1 EC50
Sequence (P25440 74-180): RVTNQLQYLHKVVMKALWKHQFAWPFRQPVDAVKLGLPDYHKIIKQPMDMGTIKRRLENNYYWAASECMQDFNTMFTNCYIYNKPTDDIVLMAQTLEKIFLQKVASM
Parameter: EC50. Scope: all listed entries.
Return type: number; implicit unit µM.

{"compound": "CC(=O)N1c2ccc(-c3cccc(NC(=O)c4ccc(C)cc4)c3)cc2[C@H](NC(=O)OC(C)C)C[C@@H]1C", "measured-on": "BRD2-BD1 (Homo sapiens (Human))", "EC50 / µM": 3.1}
{"compound": "CC(=O)N1c2ccc(-c3ccc4cc[nH]c4c3)cc2[C@H](NC(=O)OC(C)C)C[C@@H]1C", "measured-on": "BRD2-BD1 (Homo sapiens (Human))", "EC50 / µM": 7.1}

Data request, read-out EC50, for CC(=O)N1c2ccc(-c3cccc(NCc4ccccc4)c3)cc2[C@H](NC(=O)OC(C)C)C[C@@H]1C
0.6

Data request, read-out EC50, for CC(=O)Nc1cccc(-c2ccc3c(c2)[C@H](Nc2ccc(OC(F)(F)F)cc2)C[C@H](C)N3C(C)=O)c1
20

Data request, read-out EC50, for CC(=O)N1c2ccc(-c3ccc4occc(=O)c4c3)cc2[C@H](NC(=O)OC(C)C)C[C@@H]1C
6.3

Data request, read-out EC50, for COC(=O)c1ccccc1N[C@@H]1C[C@H](C)N(C(C)=O)c2ccc(-c3cccc(NC(C)=O)c3)cc21
7

Data request, read-out EC50, for COc1ccc(N[C@@H]2C[C@H](C)N(C(C)=O)c3ccc(-c4cccc(NC(C)=O)c4)cc32)cc1
1.9

Data request, read-out EC50, for CC(=O)Nc1cccc(-c2ccc3c(c2)[C@H](N)C[C@H](C)N3C(C)=O)c1
12

Data request, read-out EC50, for C#CCCCC(=O)Nc1cccc(-c2ccc3c(c2)[C@H](Nc2ccc(C(=O)OC)cc2)C[C@H](C)N3C(C)=O)c1
4.6

Data request, read-out EC50, for CC(=O)Nc1cccc(-c2ccc3c(c2)[C@H](NC2CCCC2)C[C@H](C)N3C(C)=O)c1
5.5

Data request, read-out EC50, for CC(=O)Nc1cccc(-c2ccc3c(c2)[C@H](NC(=O)OC(C)C)C[C@H](C)N3C(C)=O)c1
0.85

Data request, read-out EC50, for CC(=O)Nc1cccc(-c2ccc3c(c2)[C@H](Nc2cncnc2)C[C@H](C)N3C(C)=O)c1
9.8

Data request, read-out EC50, for CC(=O)N1c2ccc(-c3cccc(NC(=O)C(C)C)c3)cc2[C@H](NC(=O)OC(C)C)C[C@@H]1C
1.5

Data request, read-out EC50, for CC(=O)N1c2ccc(-c3cc4ccccc4[nH]3)cc2[C@H](NC(=O)OC(C)C)C[C@@H]1C
1.7

Data request, read-out EC50, for CC(=O)N1c2ccc(-c3cccc(NCC4CCOC4)c3)cc2[C@H](Nc2ccccc2OC(F)(F)F)C[C@@H]1C (stereo partly drawn)
14

====

Parameter: ΔH. Scope: all listed entries.
measured-on: BRD2-BD1 (Homo sapiens (Human))
test-protocol: isothermal titration calorimetry analysis of binding
conditions-used: ITC, BRD2-BD1
Sequence (P25440 74-194): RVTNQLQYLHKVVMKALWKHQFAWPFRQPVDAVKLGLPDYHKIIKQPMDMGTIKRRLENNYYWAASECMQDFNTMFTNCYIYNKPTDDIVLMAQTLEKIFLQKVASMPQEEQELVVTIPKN
Return type: number; implicit unit kcal/mol.

Recorded results for 4 compounds are shown here.
{"smiles-entry": "CC(=O)N1c2ccc(-c3cc[nH]c3)cc2[C@H](NC(=O)OC(C)C)C[C@@H]1C", "measured-number": -7.33}
{"smiles-entry": "CC(=O)N1c2ccc(-c3ccoc3)cc2[C@H](NC(=O)OC(C)C)C[C@@H]1C", "measured-number": -9.90}
{"smiles-entry": "CC(=O)N1c2ccc(-c3ccc[nH]3)cc2[C@H](NC(=O)OC(C)C)C[C@@H]1C", "measured-number": -6.90}
{"smiles-entry": "CC(=O)N1c2ccc(-c3ccsc3)cc2[C@H](NC(=O)OC(C)C)C[C@@H]1C", "measured-number": -7.69}

Pending compound:
Data request, read-out ΔH, for CC(=O)N1c2ccc(-c3cccs3)cc2[C@H](NC(=O)OC(C)C)C[C@@H]1C
-8.27

Hello, the source for this data is patent US11028051B2, in case you need it.
